- System: NCI-H460
- Protocol notes: NCI tumour cell line growth inhibition, 48 h
The source made the active and inactive calls. No stated cut-off is given here; in the data, active = GI50 up to about 1.1 µM and inactive = higher.
One label from this list, please: YES = active, NO = inactive

# count of solved cases: 2
# Compound, Label
records = [
    ("Cc1cc(O)c(C(C)C)cc1/N=C/c1ccccc1O", "NO"),
    ("Nc1ccc(C(=O)NN2C(=O)C(Cl)C2c2cc(Br)cc(Br)c2O)cc1 (stereo not given)", "NO"),
]

For `COc1cccc(-c2cc(O)c3cc(OC)ccc3n2)c1` , which call appears in the assay record?
YES

Moving on to `COc1cc(Nc2cnc3cc(N)ccc3n2)cc(OC)c1OC`
NO

Let us now turn to `CCN(CC)CCN(/C(=N/c1ccccc1)N1CCOCC1)c1ccccc1`
NO

Input COc1cc(CCCOC2OC(COC3OCC(O)C(O)C3O)C(O)C(O)C2O)cc2cc(-c3ccc4c(c3)OCO4)oc12 (stereo not given)
NO

Let us now turn to `COc1cccc(Nc2nc(-c3cccs3)nc3cc(OC)c(OC)cc23)c1`
NO

Likewise for `COc1ccc(/C=C/c2nsc(/C=C/c3ccc(OC)cc3)n2)cc1` ?
NO
